- Test Protocol: Metabolic stability in plasma with Brush Border Membrane Vesicles (BBMV)
- Type: in vitro ADME
- Experimental Conditions: human; over two hours; read-out: decrease of amount in plasma enriched with BBMV
Numbered stars: 1 amine (or outer) side, 2 acyl side, 3 side chain; on linkers, the order of the positions; unused ones are H or OH. Bridge positions count the residues as written; N and C are the ends. Square brackets hold non-standard residues; d marks the D form. Peptide text beside a SMILES is read from it. CO = O=C([*:1])[*:2]; Nlys = NCCCCNCC(=O)O
Result Type: metabolised at 2 h (%)
Supply the numeric figure in %, leaving out any unit text.

Data request, read-out metabolised at 2 h, for CC(C)C[C@@H]1NC(=O)[C@H](C(C)C)NC(=O)[C@H](CC(=O)O)NC(=O)[C@H](CCCNC(=N)N)NC(=O)CN(C(=O)[C@@H](N)Cc2c[nH]c3ccccc23)CCCCNC(=O)NCCCCN(CC(=O)NCC(=O)N[C@H](C(N)=O)[C@@H](C)O)C1=O [4×4MyDI] (H-W[Nlys]RDVL[Nlys]GT-NH2; linker 2-7 via CO; N-terminus assumed)
40
